pIC50: −log10 of the molar value.
// cross-source set; read-out = pIC50; system = Aurora kinase A (Mus musculus) (UniProt P97477)

{"compound": "Nc1ncnn2cc(C(=O)O)c(-c3ccc(Nc4nc5ccc(Oc6ccccc6)c(F)c5[nH]4)cc3)c12", "pIC50": "> 7.00"}
{"compound": "O=C1NCc2cccc(-c3cc4cc(OCCCN5CCC(CO)CC5)ccc4[nH]3)c21", "pIC50": 7.21}
{"compound": "O=C1NCc2cccc(-c3cc4cc(OCCN5CCOCC5)ccc4[nH]3)c21", "pIC50": 6.87}
{"compound": "O=C(Nc1cccnc1)c1cccc2[nH]c(-c3n[nH]c4ncc(-c5cncc6ccccc56)cc34)nc12", "pIC50": "~6.00"}
{"compound": "CCNC(=O)c1cn2ncnc(N)c2c1-c1ccc(Nc2nc3cc(F)cc(F)c3[nH]2)cc1", "pIC50": "> 7.00"}
{"compound": "CCN(CC)C(=O)c1cccc2[nH]c(-c3n[nH]c4ncc(-c5cncc6ccccc56)cc34)nc12", "pIC50": "< 6.00"}
{"compound": "Cc1cc2c(F)c(Oc3ncnc4sc(C(=O)Nc5ccc(CN6CCOCC6)cc5)c(C)c34)ccc2[nH]1", "pIC50": "< 4.00"}
{"compound": "N#Cc1cnc2sc(C(=O)N3CCCC(F)C3)c3c2c1N(c1c(Cl)ccc2c1OCO2)C(=O)N3 (stereo not shown)", "pIC50": "< 5.00"}
{"compound": "FC(F)(F)Oc1ccc2[nH]c(-c3n[nH]c4ncc(-c5cccnc5)cc34)nc2c1", "pIC50": "< 5.00"}
{"compound": "CNC(=O)c1cn2ncnc(N)c2c1-c1ccc(Nc2nc3ccc(Oc4ccccc4)c(F)c3[nH]2)cc1", "pIC50": "> 7.00"}
{"compound": "Nc1ncnn2cc(C(=O)O)c(-c3ccc(Nc4nc5cc(F)cc(F)c5[nH]4)cc3)c12", "pIC50": "> 7.00"}
{"compound": "COc1ccc2[nH]c(-c3ccc(N)c4c3C(=O)NC4)cc2c1", "pIC50": 6.36}
{"compound": "CN(C)CCNC(=O)c1cccc2[nH]c(-c3n[nH]c4ncc(-c5cncc6ccccc56)cc34)nc12", "pIC50": "< 6.00"}
